System: K4 kissing-loop RNA reporter;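 note: bound reporter read as fluorescence of individual clusters on recovered sequencing chips by microscopy, with normalized cluster intensities fitted with a binding model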
Assay: apparent KD of K4 kissing-loop reporter; higher = weaker reporter binding
Conditions: Eterna round: R107; input ligand: tryptophan 2.4 mM

- residue.sequence: "UGACUGGACUGAAGGAGCGUUCAGGUAGGUCGCUAAGGAGUGAUGUUCCAUAGAAGGAGCGAACAGGUAGGUCGCAGUCUAGUCU [ArgBS 29 #DoubleAptamer #SwitchBubble]"
  system.name: "K4 kissing-loop RNA reporter"
  apparent KD of K4 kissing-loop reporter (nM): 102
- residue.sequence: "UGAUACCAGACUGAUACCAGCCACAGAGUCAAAGACUCUGAUAAAGGUACCAGUGAUGUUGGCCCUUGGCAGCAGUCUGGUAUCU [TheoBX 17 #SwitchBubble #StaticStem]"
  system.name: "K4 kissing-loop RNA reporter"
  apparent KD of K4 kissing-loop reporter (nM): 141
- residue.sequence: "AAGGUCACCACUACAGUGAUGUUGUAGGAGCAGGAUAUGCAGAAAUGCAGAAGGGCUCGCUCCAGGUGACCGAAUGAAACAUUCA [Omei KL FMN A SS A v4]"
  system.name: "K4 kissing-loop RNA reporter"
  apparent KD of K4 kissing-loop reporter (nM): 381
- residue.sequence: "GGGCGUGGCGCGGCCGCCACUGGGCCUGGGUGCUCGCUGAGUGAUGUUCGUCGGCGGUUGGGUCGUAGGACCGGGUGCUGGUUGG [BDazzled - #9 SS Tryptophan B]"
  system.name: "K4 kissing-loop RNA reporter"
  apparent KD of K4 kissing-loop reporter (nM): 575
- residue.sequence: "AUGCGACGUGCGGCCGCCACUCGGAUGCGAGUGAUGUUCGCGGGCCGGCCGCAAGGCCGGCAUUCGAGGACCGGGCAUCGGUGUA [#2 Same State - Tryptophan B Attempt #1 (HarryS)]"
  system.name: "K4 kissing-loop RNA reporter"
  apparent KD of K4 kissing-loop reporter (nM): 116

Cited source: the supplement of paper PMC9170038
